Target: human PDE4B1 (Homo sapiens, UniProt Q07343)
Construct: host or cells: Sf9 cells
Sequence (Q07343 whole entry): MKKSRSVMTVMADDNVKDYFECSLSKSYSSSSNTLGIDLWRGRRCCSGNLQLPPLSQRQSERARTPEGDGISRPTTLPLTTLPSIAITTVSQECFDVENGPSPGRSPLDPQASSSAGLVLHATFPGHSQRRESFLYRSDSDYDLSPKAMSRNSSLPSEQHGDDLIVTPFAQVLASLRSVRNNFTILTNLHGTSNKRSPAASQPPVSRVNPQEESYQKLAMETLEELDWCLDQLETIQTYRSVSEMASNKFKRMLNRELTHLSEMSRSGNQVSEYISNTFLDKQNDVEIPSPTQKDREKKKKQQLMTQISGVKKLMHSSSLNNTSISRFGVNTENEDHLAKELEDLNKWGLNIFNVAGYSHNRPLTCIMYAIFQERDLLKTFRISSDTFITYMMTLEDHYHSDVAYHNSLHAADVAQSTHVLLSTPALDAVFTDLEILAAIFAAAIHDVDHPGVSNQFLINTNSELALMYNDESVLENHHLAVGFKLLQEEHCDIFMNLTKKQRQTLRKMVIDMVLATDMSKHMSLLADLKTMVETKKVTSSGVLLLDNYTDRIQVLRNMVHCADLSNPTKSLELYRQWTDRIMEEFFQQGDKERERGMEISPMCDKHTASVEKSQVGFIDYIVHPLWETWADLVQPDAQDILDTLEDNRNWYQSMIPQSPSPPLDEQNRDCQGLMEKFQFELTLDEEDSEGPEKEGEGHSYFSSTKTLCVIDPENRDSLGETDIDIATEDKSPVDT
Assay: cAMP HTRF assay to determine the activity of hPDE4B1
Type: biochemical
Conditions: dose response measurements with eight concentrations; reported as ranges; read-out: IC50
Method: cAMP HTRF® Assay to Determine the Activity of hPDE4B1 The inhibiting effect of the compounds on the enzyme activity of human PDE4B1 was measured by the quantification of 5′-adenosine monophosphate (5′-AMP), which is formed from 3′,5′-cyclic adenosine monophosphate (cAMP). Human recombinant enzyme, expressed in Sf9 cells, and the HTRF (homogeneous time-resolved fluorescence) detection method were used in the assay. […]
Measured Property: IC50

Reported IC50, molecule O=C(COc1ccc2c(c1)N(c1nc(-c3ccc(Cl)s3)nc3c1CCC3)CC2)N1CCOCC1 : ____
100 to 1000 nM

Next molecule: CN(C)C(=O)COc1ccc2ncn(-c3nc(-c4ccc(Cl)s4)nc4c3C[S+]([O-])C4)c2c1 (single isomer, unassigned)
100 to 1000 nM

Next molecule: COc1ccc(-c2nc3c(c(N4CCc5ccc(OCC(=O)N(C)C)cc54)n2)CS(=N)(=O)C3)cc1F (stereo not drawn)
< 100 nM

Next molecule: O=C(O)Cc1ccc2c(c1)CCN2c1nc(-c2cc3ccccc3s2)nc2c1C[S+]([O-])C2 (stereo not drawn)
< 100 nM

Next molecule: Cc1ccc(-c2nc3c(c(N4CCc5ccc(OCC(=O)N(C)C)cc54)n2)C[S+]([O-])C3)cc1 (stereo not drawn)
< 100 nM

Next molecule: CN(C)C(=O)COc1ccc2c(c1)N(c1nc(-c3cccc(C(F)(F)F)c3)nc3c1C[S+]([O-])C3)CC2 (stereo not drawn)
< 100 nM

Next molecule: CN(C)C(=O)COc1ccc2c(c1)N(c1nc(-c3ccncc3)nc3c1CS(=O)(=O)C3)CC2
< 100 nM

Next molecule: CN(C)C(=O)COc1ccc2c(c1)N(c1nc(-c3ccc(Cl)s3)nc3c1CCC3)CC2
< 100 nM

Next molecule: CN(C)C(=O)COc1ccc2c(c1)N(c1nc(-c3ccc(C#N)s3)nc3c1C[S+]([O-])C3)CC2 (stereo not drawn)
< 100 nM

Next molecule: COc1ccc(-c2nc3c(c(N4C(=O)Cc5cc(CC(=O)O)ccc54)n2)CCC3)cc1Cl
100 to 1000 nM

Next molecule: CN(C)C(=O)COc1ccc2c(c1)N(c1nc(-c3ccc(F)s3)nc3c1CCC3)CC2
< 100 nM

Next molecule: CN(C)C(=O)COc1ccc2c(c1)N(c1nc(-c3ccc(C#N)c(F)c3)nc3c1C[S+]([O-])C3)CC2 (stereo not drawn)
< 100 nM

Next molecule: O=C(O)c1ccc2c(c1)CC(=O)N2c1nc(-c2ccc(Cl)s2)nc2c1CCC2
100 to 1000 nM

Next molecule: N#CCOc1ccc2c(c1)N(c1nc(-c3ccc(Cl)s3)nc3c1CS(=O)(=O)C3)CC2
100 to 1000 nM

Next molecule: COc1ccc(-c2nc3c(c(N4CCc5cc(CC(=O)O)ccc54)n2)CS(=O)(=O)C3)cc1Cl
< 100 nM
